assay: Selectivity index, ratio of IC50 for human MCF7 cells to IC50 for chloroquine-resistant Plasmodium falciparum Dd2; type: toxicity, cell-based; details: read-out: Ratio IC50
Would you mind telling me the reported selectivity ratio of each entry?

Known selectivity ratio results, listed for orientation:
CO[C@H]1C=C2[C@@H](CC[C@H](O)C2(C)C)[C@]2(C)CC[C@]3(C)[C@@H]([C@H](C)C[C@@H](O)C=C(C)C)CC[C@@]3(C)[C@H]12 [KARAVELAGENIN C]; 1.4
COc1ccc(C(=O)O[C@@H](C=C(C)C)C[C@@H](C)[C@H]2CC[C@@]3(C)[C@@H]4[C@@H](OC)C=C5[C@@H](CC[C@H](O)C5(C)C)[C@]4(C)CC[C@]23C)cc1 [KARAVOATE M]; > 215
CO[C@H]1C=C2[C@@H](CC[C@H](O)C2(C)C)[C@]2(C)C[C@@H](O)[C@]3(C)[C@@H]([C@H](C)C[C@@H](O)C=C(C)C)CC[C@@]3(C)[C@H]12 [CUCURBALSAMINOL C]; 0.6
CCC(=O)O[C@H]1CC[C@@H]2C(=C[C@H](OC)[C@@H]3[C@@]2(C)CC[C@]2(C)[C@@H]([C@H](C)C[C@H](C=C(C)C)OC(=O)CC)CC[C@@]32C)C1(C)C [KARAVOATE D]; > 350
CCCC(=O)O[C@@H](C=C(C)C)C[C@@H](C)[C@H]1CC[C@@]2(C)[C@@H]3[C@@H](OC)C=C4[C@@H](CC[C@H](O)C4(C)C)[C@]3(C)CC[C@]12C [KARAVOATE E]; 116
CO[C@H]1C=C2[C@@H](CC[C@H](O)C2(C)C)[C@]2(C)CC[C@]3(C)[C@@H]([C@H](C)C[C@H](C=C(C)C)OC(=O)/C=C/c4ccccc4)CC[C@@]3(C)[C@H]12 [KARAVOATE O]; > 5
CCCC(=O)O[C@H]1CC[C@@H]2C(=C[C@H](OC)[C@@H]3[C@@]2(C)CC[C@]2(C)[C@@H]([C@H](C)C[C@H](C=C(C)C)OC(=O)CCC)CC[C@@]32C)C1(C)C [KARAVOATE F]; > 15.8

Okay, now this molecule:
(Q) Which selectivity ratio is listed for CO[C@H]1C=C2[C@@H](CC[C@H](OC(=O)c3ccc(Cl)cc3)C2(C)C)[C@]2(C)CC[C@]3(C)[C@@H]([C@H](C)C[C@H](C=C(C)C)OC(=O)c4ccc(Cl)cc4)CC[C@@]3(C)[C@H]12 [KARAVOATE L] ?
(A) > 2
